Target: human DGAT1 (Homo sapiens, UniProt O75907)
Sequence (O75907 1-488): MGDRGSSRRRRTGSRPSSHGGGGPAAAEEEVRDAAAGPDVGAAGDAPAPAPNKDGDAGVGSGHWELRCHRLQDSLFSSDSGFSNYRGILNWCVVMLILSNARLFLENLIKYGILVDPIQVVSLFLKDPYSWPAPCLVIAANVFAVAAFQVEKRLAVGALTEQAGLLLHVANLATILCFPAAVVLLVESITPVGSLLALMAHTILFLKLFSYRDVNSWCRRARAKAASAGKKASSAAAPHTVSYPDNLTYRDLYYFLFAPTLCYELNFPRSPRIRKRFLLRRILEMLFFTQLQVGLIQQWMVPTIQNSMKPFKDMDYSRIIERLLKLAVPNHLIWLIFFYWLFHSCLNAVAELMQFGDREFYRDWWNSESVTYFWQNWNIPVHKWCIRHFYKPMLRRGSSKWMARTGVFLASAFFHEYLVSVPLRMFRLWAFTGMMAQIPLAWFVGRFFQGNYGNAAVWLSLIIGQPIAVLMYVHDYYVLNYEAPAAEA
Assay: in vitro recombinant DGAT1 enzyme assay (human)
result-type: IC50

In [3]: df
Out[3]:
                         chemical_structure                                    system  measured_result
0  Cc1nc(C)c(-c2ccc([C@H]3CC[C@H](CC(=O)O)CC3)cc2)nc1C(N)=O  human DGAT1 (Homo sapiens, UniProt O75907)           ~80 nM

----------
biological target: mouse DGAT1 (Mus musculus, UniProt Q9Z2A7); assay: in vitro recombinant DGAT1 enzyme assay (mouse)
Sequence (Q9Z2A7 whole entry): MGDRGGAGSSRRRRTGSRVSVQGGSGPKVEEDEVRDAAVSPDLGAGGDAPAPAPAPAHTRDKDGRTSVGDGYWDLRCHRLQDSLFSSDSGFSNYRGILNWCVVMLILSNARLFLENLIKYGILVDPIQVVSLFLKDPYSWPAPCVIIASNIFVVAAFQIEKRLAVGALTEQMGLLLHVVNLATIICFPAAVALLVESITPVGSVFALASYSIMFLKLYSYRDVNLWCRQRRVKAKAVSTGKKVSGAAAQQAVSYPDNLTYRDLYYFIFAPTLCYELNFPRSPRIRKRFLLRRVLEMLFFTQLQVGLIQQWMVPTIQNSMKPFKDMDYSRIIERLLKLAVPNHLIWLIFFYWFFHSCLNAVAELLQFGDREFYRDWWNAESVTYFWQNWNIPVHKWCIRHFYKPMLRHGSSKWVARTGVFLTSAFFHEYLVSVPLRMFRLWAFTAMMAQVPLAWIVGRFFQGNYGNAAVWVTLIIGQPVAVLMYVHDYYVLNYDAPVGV
pIC50: −log10 of the molar value.
result-type: pIC50

In [3]: df
Out[3]:
                         chemical_structure  measured_result
0  Cc1nc(C)c(-c2ccc([C@H]3CC[C@H](CC(=O)O)CC3)cc2)nc1C(N)=O            ~7.00
